- Test system: NCI-H1876 complex spheroid growth, % test/control
- assay.comment: Anticancer human tumor NCI-H1876 cell line growth inhibition [Asc];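 note: compound exposure lasted 7 days starting three days after seeding; 100% = DMSO vehicle control wells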
- experimental.conditions: second compound 0.1 µM; first compound 0.01 µM; active compounds read low
Could you please report measured viability, T/C for the items listed next?
Answers are plain numbers, in %.

As a guide, the following entries are already answered.
{"compound": "CCN1CCN(Cc2ccc(Nc3ncc(F)c(-c4cc(F)c5nc(C)n(C(C)C)c5c4)n3)nc2)CC1 + Cc1c(S(C)(=O)=O)c(-c2cc(F)cc(N3CCN(c4ccc(NS(=O)(=O)c5ccc(NC(CCN6CCC(C(=O)OCCCP(=O)(O)O)CC6)CSc6ccccc6)c(S(=O)(=O)C(F)(F)F)c5)cc4)CC3)c2)c(-c2ccc(Cl)cc2)n1C(C)C", "viability, T/C, %": 101}
{"compound": "COc1c(OCCCN2CCOCC2)ccc2c3n(c(=NC(=O)c4cnc(N)nc4)nc12)CCN3 + CNC(C)C(=O)NC1CN(S(=O)(=O)c2cccc(S(=O)(=O)N3CCC4CCC(C(=O)NC(c5ccccc5)c5ccccc5)N4C(=O)C(NC(=O)C(C)NC)C3)c2)CCC2CCC(C(=O)NC(c3ccccc3)c3ccccc3)N2C1=O", "viability, T/C, %": 101}
{"compound": "O=C(c1ccc(F)c(F)c1Nc1ccc(I)cc1F)N1CC(O)([C@@H]2CCCCN2)C1 + CNC(C)C(=O)NC1CN(S(=O)(=O)c2cccc(S(=O)(=O)N3CCC4CCC(C(=O)NC(c5ccccc5)c5ccccc5)N4C(=O)C(NC(=O)C(C)NC)C3)c2)CCC2CCC(C(=O)NC(c3ccccc3)c3ccccc3)N2C1=O", "viability, T/C, %": 103}
{"compound": "NC1CCC(NC2CC2c2ccccc2)CC1 (stereo unspecified) + CNC(C)C(=O)NC1CN(S(=O)(=O)c2cccc(S(=O)(=O)N3CCC4CCC(C(=O)NC(c5ccccc5)c5ccccc5)N4C(=O)C(NC(=O)C(C)NC)C3)c2)CCC2CCC(C(=O)NC(c3ccccc3)c3ccccc3)N2C1=O", "viability, T/C, %": 128}
{"compound": "CNC(C)C(=O)NC1CN(S(=O)(=O)c2cccc(S(=O)(=O)N3CCC4CCC(C(=O)NC(c5ccccc5)c5ccccc5)N4C(=O)C(NC(=O)C(C)NC)C3)c2)CCC2CCC(C(=O)NC(c3ccccc3)c3ccccc3)N2C1=O (stereo unspecified) + Cc1c(S(C)(=O)=O)c(-c2cc(F)cc(N3CCN(c4ccc(NS(=O)(=O)c5ccc(NC(CCN6CCC(C(=O)OCCCP(=O)(O)O)CC6)CSc6ccccc6)c(S(=O)(=O)C(F)(F)F)c5)cc4)CC3)c2)c(-c2ccc(Cl)cc2)n1C(C)C", "viability, T/C, %": 96.2}
{"compound": "Cn1ncnc1[C@H]1c2n[nH]c(=O)c3cc(F)cc(c23)N[C@@H]1c1ccc(F)cc1 + CNC(C)C(=O)NC1CN(S(=O)(=O)c2cccc(S(=O)(=O)N3CCC4CCC(C(=O)NC(c5ccccc5)c5ccccc5)N4C(=O)C(NC(=O)C(C)NC)C3)c2)CCC2CCC(C(=O)NC(c3ccccc3)c3ccccc3)N2C1=O", "viability, T/C, %": 91.5}
{"compound": "Cn1ncnc1[C@H]1c2n[nH]c(=O)c3cc(F)cc(c23)N[C@@H]1c1ccc(F)cc1 + Cc1c(S(C)(=O)=O)c(-c2cc(F)cc(N3CCN(c4ccc(NS(=O)(=O)c5ccc(NC(CCN6CCC(C(=O)OCCCP(=O)(O)O)CC6)CSc6ccccc6)c(S(=O)(=O)C(F)(F)F)c5)cc4)CC3)c2)c(-c2ccc(Cl)cc2)n1C(C)C", "viability, T/C, %": 111}
{"compound": "O=C(c1ccc(F)c(F)c1Nc1ccc(I)cc1F)N1CC(O)([C@@H]2CCCCN2)C1 + Cc1c(S(C)(=O)=O)c(-c2cc(F)cc(N3CCN(c4ccc(NS(=O)(=O)c5ccc(NC(CCN6CCC(C(=O)OCCCP(=O)(O)O)CC6)CSc6ccccc6)c(S(=O)(=O)C(F)(F)F)c5)cc4)CC3)c2)c(-c2ccc(Cl)cc2)n1C(C)C", "viability, T/C, %": 97.5}
{"compound": "CCN1CCN(Cc2ccc(Nc3ncc(F)c(-c4cc(F)c5nc(C)n(C(C)C)c5c4)n3)nc2)CC1 + CNC(C)C(=O)NC1CN(S(=O)(=O)c2cccc(S(=O)(=O)N3CCC4CCC(C(=O)NC(c5ccccc5)c5ccccc5)N4C(=O)C(NC(=O)C(C)NC)C3)c2)CCC2CCC(C(=O)NC(c3ccccc3)c3ccccc3)N2C1=O", "viability, T/C, %": 102}
{"compound": "NC1CCC(NC2CC2c2ccccc2)CC1 (stereo unspecified) + Cc1c(S(C)(=O)=O)c(-c2cc(F)cc(N3CCN(c4ccc(NS(=O)(=O)c5ccc(NC(CCN6CCC(C(=O)OCCCP(=O)(O)O)CC6)CSc6ccccc6)c(S(=O)(=O)C(F)(F)F)c5)cc4)CC3)c2)c(-c2ccc(Cl)cc2)n1C(C)C", "viability, T/C, %": 110}

We now examine a further compound.
Fill in: viability, T/C of COc1c(OCCCN2CCOCC2)ccc2c3n(c(=NC(=O)c4cnc(N)nc4)nc12)CCN3 + Cc1c(S(C)(=O)=O)c(-c2cc(F)cc(N3CCN(c4ccc(NS(=O)(=O)c5ccc(NC(CCN6CCC(C(=O)OCCCP(=O)(O)O)CC6)CSc6ccccc6)c(S(=O)(=O)C(F)(F)F)c5)cc4)CC3)c2)c(-c2ccc(Cl)cc2)n1C(C)C is ___
88

====

- System: NCI-H1876 complex spheroid growth, % test/control
- assay.comment: Anticancer human tumor NCI-H1876 cell line growth inhibition [Asc];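 note: compound exposure lasted 7 days starting three days after seeding; 100% = DMSO vehicle control wells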
- experimental.conditions: second compound 3.16 µM; first compound 0.01 µM; active compounds read low
What viability, T/C was measured for each of the following?
Numbers only, in %.

{"compound": "Cn1ncnc1[C@H]1c2n[nH]c(=O)c3cc(F)cc(c23)N[C@@H]1c1ccc(F)cc1 + Cc1c(S(C)(=O)=O)c(-c2cc(F)cc(N3CCN(c4ccc(NS(=O)(=O)c5ccc(NC(CCN6CCC(C(=O)OCCCP(=O)(O)O)CC6)CSc6ccccc6)c(S(=O)(=O)C(F)(F)F)c5)cc4)CC3)c2)c(-c2ccc(Cl)cc2)n1C(C)C", "unit.spec": "%", "viability, T/C": 92.6}

API: value(readout=viability, T/C, system=NCI-H1876 complex spheroid growth, % test/control) for record COc1c(OCCCN2CCOCC2)ccc2c3n(c(=NC(=O)c4cnc(N)nc4)nc12)CCN3 + Cc1c(S(C)(=O)=O)c(-c2cc(F)cc(N3CCN(c4ccc(NS(=O)(=O)c5ccc(NC(CCN6CCC(C(=O)OCCCP(=O)(O)O)CC6)CSc6ccccc6)c(S(=O)(=O)C(F)(F)F)c5)cc4)CC3)c2)c(-c2ccc(Cl)cc2)n1C(C)C
84.7

====

- Tested on: NCI-H1876 complex spheroid growth, % test/control
- assay.comment: Anticancer human tumor NCI-H1876 cell line growth inhibition [Asc];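 note: compound exposure lasted 7 days starting three days after seeding; 100% = DMSO vehicle control wells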
- experimental.conditions: second compound 0.0316 µM; first compound 0.000316 µM; active compounds read low
I'd be grateful if you could share measured viability, T/C for these entries.
Numbers only, in %.

// below: answered compounds
{"compound": "NC1CCC(NC2CC2c2ccccc2)CC1 (centres undefined) + CNC(C)C(=O)NC1CN(S(=O)(=O)c2cccc(S(=O)(=O)N3CCC4CCC(C(=O)NC(c5ccccc5)c5ccccc5)N4C(=O)C(NC(=O)C(C)NC)C3)c2)CCC2CCC(C(=O)NC(c3ccccc3)c3ccccc3)N2C1=O", "viability, T/C (%)": 116}
{"compound": "NC1CCC(NC2CC2c2ccccc2)CC1 (centres undefined) + Cc1c(S(C)(=O)=O)c(-c2cc(F)cc(N3CCN(c4ccc(NS(=O)(=O)c5ccc(NC(CCN6CCC(C(=O)OCCCP(=O)(O)O)CC6)CSc6ccccc6)c(S(=O)(=O)C(F)(F)F)c5)cc4)CC3)c2)c(-c2ccc(Cl)cc2)n1C(C)C", "viability, T/C (%)": 111}
{"compound": "Cn1ncnc1[C@H]1c2n[nH]c(=O)c3cc(F)cc(c23)N[C@@H]1c1ccc(F)cc1 + Cc1c(S(C)(=O)=O)c(-c2cc(F)cc(N3CCN(c4ccc(NS(=O)(=O)c5ccc(NC(CCN6CCC(C(=O)OCCCP(=O)(O)O)CC6)CSc6ccccc6)c(S(=O)(=O)C(F)(F)F)c5)cc4)CC3)c2)c(-c2ccc(Cl)cc2)n1C(C)C", "viability, T/C (%)": 89.8}

Given the compound Cn1ncnc1[C@H]1c2n[nH]c(=O)c3cc(F)cc(c23)N[C@@H]1c1ccc(F)cc1 + CNC(C)C(=O)NC1CN(S(=O)(=O)c2cccc(S(=O)(=O)N3CCC4CCC(C(=O)NC(c5ccccc5)c5ccccc5)N4C(=O)C(NC(=O)C(C)NC)C3)c2)CCC2CCC(C(=O)NC(c3ccccc3)c3ccccc3)N2C1=O , what is its reported viability, T/C?
94.8
